# SYSTEM: RORγ (UniProt P51449)
# Construct: hRORg-LBD|aa259-518|NP_005051.2; hRORgt|aa1-497|NP_001001523 (RORg, t isoform, 497aa); mRORg-LBD|aa264-516|NP_035411
# Sequence (P51449 1-518): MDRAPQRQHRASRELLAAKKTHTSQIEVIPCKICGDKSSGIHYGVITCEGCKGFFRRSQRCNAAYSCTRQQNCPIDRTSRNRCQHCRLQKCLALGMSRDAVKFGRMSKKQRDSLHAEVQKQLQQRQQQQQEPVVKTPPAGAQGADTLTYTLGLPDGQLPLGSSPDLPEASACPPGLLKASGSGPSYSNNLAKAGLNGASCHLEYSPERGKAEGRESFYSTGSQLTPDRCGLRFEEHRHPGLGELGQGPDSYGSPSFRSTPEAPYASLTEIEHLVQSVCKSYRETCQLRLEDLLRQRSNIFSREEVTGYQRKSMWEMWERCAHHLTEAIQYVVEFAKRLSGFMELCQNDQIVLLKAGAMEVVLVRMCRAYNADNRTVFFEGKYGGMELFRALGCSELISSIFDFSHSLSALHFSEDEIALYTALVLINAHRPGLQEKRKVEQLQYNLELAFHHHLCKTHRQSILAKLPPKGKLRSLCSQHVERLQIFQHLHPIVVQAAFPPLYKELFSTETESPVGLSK
# Assay type: cell-based
# CONDITION_SET: renilla normalised (RENnorm) luciferase, 293T cells, 16 h
# Experimental: Determination of a ligand mediated Gal4 promoter driven transactivation to quantify ligand binding to RORγ was performed as follows: DNA encoding three different RORγ. protein fragments was cloned into vector pCMV-BD (Stratagene). Expression was under control of a CMV promoter and as fusion to the DNA-binding domain of the yeast protein GAL4. […]
QUANTITY_NAME: pIC50 (REN)

{"COMPOUND_STRUCTURE": "COC(C)(C)c1cc(-n2nc(C(N)=O)c(Cl)c2CC2CCCCC2)cc(C(C)(C)C)c1", "SYSTEM": "RORγ (UniProt P51449)", "pIC50 (REN)": "6.0/6.0/6.0"}

q: Answer with reported pIC50 (REN) of CC1(CNC(=O)c2nn(-c3cc(C(C)(C)C)nc(C(C)(C)C)c3)c(CC3CCCCC3)c2Cl)COC1
a: < 4.7

====

Task for the reader: assign each of the following molecules its reported pIC50 (REN).
# SYSTEM: RORγ (UniProt P51449)
# Construct: hRORg-LBD|aa259-518|NP_005051.2; hRORgt|aa1-497|NP_001001523 (RORg, t isoform, 497aa); mRORg-LBD|aa264-516|NP_035411
# Assay type: cell-based
# CONDITION_SET: renilla normalised (RENnorm) luciferase, 293T cells, 16 h
Numbers only.

{"COMPOUND_STRUCTURE": "Cc1c(C(=O)NC2CCOCC2)cc(-c2ccc(S(=O)(=O)NC(C)(C)C)c(C(F)(F)F)c2)n1CC(C(F)(F)F)C(F)(F)F", "SYSTEM": "RORγ (UniProt P51449)", "pIC50 (REN)": 5.8}
{"COMPOUND_STRUCTURE": "Cn1c(C(=O)N[C@H]2C[C@H](C(=O)O)C2)cc(CC2CCCCC2)c1-c1cc(C(C)(C)C)cc(C2(C)CC2)c1", "SYSTEM": "RORγ (UniProt P51449)", "pIC50 (REN)": 7.2}

Field: next molecule
q: // fetch pIC50 (REN) for CC(C)(C)c1cc(-c2nc(C(=O)NC3CCOCC3)nn2CC2CCCCC2)cc(C(C)(C)C)c1O ; system: RORγ (UniProt P51449)
a: 6.4

====

# SYSTEM: RORγ (UniProt P51449)
# Construct: hRORg-LBD|aa259-518|NP_005051.2; hRORgt|aa1-497|NP_001001523 (RORg, t isoform, 497aa); mRORg-LBD|aa264-516|NP_035411
# Assay type: cell-based
# CONDITION_SET: firefly (FF) luciferase, 293T cells, 16 h
Task for the reader: assign each of the following compounds its reported pIC50 (FF).
One number for each entry.

Use these answered entries as a reference point.
{"COMPOUND": "CC(C)(C)c1cc(-n2nc(C(N)=O)cc2CC2CCCCC2)cc(C(C)(C)C)c1 [Example 312]", "SYSTEM": "RORγ (UniProt P51449)", "RECORDED_MEASUREMENT": 6.2}
{"COMPOUND": "CC(C)(C)NS(=O)(=O)c1ccc(-n2nc(C(=O)NC3CCS(=O)(=O)CC3)c(Cl)c2CC2CCCCC2)c2ccccc12 [Example 114/1]", "SYSTEM": "RORγ (UniProt P51449)", "RECORDED_MEASUREMENT": 6.9}
{"COMPOUND": "CC(C)(C)c1cc(-c2nc(C(=O)NC3COC3)nn2CC2CCCCC2)cc(C(C)(C)C)c1O [308/3]", "SYSTEM": "RORγ (UniProt P51449)", "RECORDED_MEASUREMENT": 6.3}
{"COMPOUND": "CC(C)(C)NS(=O)(=O)c1ccc(-c2c(Cl)c(C(=O)N[C@H]3C[C@H](C(=O)O)C3)nn2CC2CCCCC2)cc1C(F)(F)F [Example 108]", "SYSTEM": "RORγ (UniProt P51449)", "RECORDED_MEASUREMENT": 6.4}
{"COMPOUND": "COC(C)(C)c1cc(-n2nc(C(=O)NC3COC3)c(Cl)c2CC2CCCCC2)cc(C(C)(C)C)c1 [104/4]", "SYSTEM": "RORγ (UniProt P51449)", "RECORDED_MEASUREMENT": 6.6}

q: Answer with reported pIC50 (FF) of CC(C)(C)c1cc(-n2nc(C(=O)NCc3ccno3)c(Cl)c2CC2CCCCC2)cc(C(C)(C)C)c1 [103/6]
a: 6.1

====

Task for the reader: assign each of the following molecules its reported pIC50 (FF).
# SYSTEM: RORγ (UniProt P51449)
# Construct: hRORg-LBD|aa259-518|NP_005051.2; hRORgt|aa1-497|NP_001001523 (RORg, t isoform, 497aa); mRORg-LBD|aa264-516|NP_035411
# Sequence (P51449 1-518): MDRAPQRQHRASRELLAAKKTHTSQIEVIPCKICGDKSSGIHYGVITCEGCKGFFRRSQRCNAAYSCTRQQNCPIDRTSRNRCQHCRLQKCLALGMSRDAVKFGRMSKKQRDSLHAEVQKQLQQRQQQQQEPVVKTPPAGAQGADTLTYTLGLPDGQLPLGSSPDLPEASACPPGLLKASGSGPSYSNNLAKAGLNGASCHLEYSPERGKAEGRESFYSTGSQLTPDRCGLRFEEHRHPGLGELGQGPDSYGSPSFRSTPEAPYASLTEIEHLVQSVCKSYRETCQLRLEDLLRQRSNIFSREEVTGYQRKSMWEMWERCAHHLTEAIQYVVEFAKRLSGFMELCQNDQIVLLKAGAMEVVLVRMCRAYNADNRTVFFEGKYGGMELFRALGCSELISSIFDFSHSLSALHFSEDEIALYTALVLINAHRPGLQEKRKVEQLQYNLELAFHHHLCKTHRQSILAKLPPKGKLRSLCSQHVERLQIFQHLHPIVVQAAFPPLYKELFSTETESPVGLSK
# Assay type: cell-based
# CONDITION_SET: firefly (FF) luciferase, 293T cells, 16 h
# Experimental: Determination of a ligand mediated Gal4 promoter driven transactivation to quantify ligand binding to RORγ was performed as follows: DNA encoding three different RORγ. protein fragments was cloned into vector pCMV-BD (Stratagene). Expression was under control of a CMV promoter and as fusion to the DNA-binding domain of the yeast protein GAL4. […]
Numbers only.

{"MOLECULE": "Cn1c(C(=O)NCC(C)(C)O)cc(-c2ccc(S(=O)(=O)NC(C)(C)C)c3ccccc23)c1C(=O)C1CCCCC1 [26/3]", "SYSTEM": "RORγ (UniProt P51449)", "pIC50 (FF)": 7.5}
{"MOLECULE": "Cc1c(C(=O)N[C@H]2C[C@H](C(=O)O)C2)cn(-c2cc(C(C)(C)C)cc(C3(C)CC3)c2)c1C(=O)C1CCCCC1 [Example 6]", "SYSTEM": "RORγ (UniProt P51449)", "pIC50 (FF)": 7.9}
{"MOLECULE": "Cn1c(C(=O)N[C@H]2C[C@H](C(=O)O)C2)cc(-c2cc(C(C)(C)C)nc(C3(C)CC3)n2)c1CC1CCCCC1 [8/18]", "SYSTEM": "RORγ (UniProt P51449)", "pIC50 (FF)": 6.7}
{"MOLECULE": "CC(C)(C)NS(=O)(=O)c1ccc(-c2cc(C(=O)N[C@H]3C[C@H](C(=O)O)C3)nn2CC2CCCCC2)cc1C(F)(F)F [100/6]", "SYSTEM": "RORγ (UniProt P51449)", "pIC50 (FF)": 6.3}
{"MOLECULE": "CC(C)(C)c1cc(-c2nc(C(N)=O)nn2CC2CCCCC2)cc(C(C)(C)C)c1 [308/1]", "SYSTEM": "RORγ (UniProt P51449)", "pIC50 (FF)": 6.0}

I have 2 molecules here; please give me pIC50 (FF) for each one.
1. CC(C)(O)CNC(=O)c1nc(-c2cc(C(C)(C)C)c(O)c(C(C)(C)C)c2)n(CC2CCCCC2)n1 [308/6]
2. CC(C)(C)NS(=O)(=O)c1ccc(-c2cc(C(=O)NCCC(C)(C)C(=O)O)nn2CC2CCCCC2)cc1C(C)(C)C [100/4]

a:
6.5
6.6
